The measurements presented in this section are drawn from PubChem BioAssay.

Molecular target: Calmodulin-1 (Homo sapiens)
Assay: small molecules binding Ca-loaded calmodulin-1 – biochemical, small-molecule microarray, Cy5-labelled CALM1, plus calcium, artefact control for SMM control-protein annotation, profiling panel (AID 1112);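 also: score merges spot fluorescence with signal to noise from triplicate slides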
Conditions: Cy5-CALM1 binding fluorescence, higher = more signal
The reader will find reported composite z-score values listed item by item below.
A bare number is all that is needed in reply.

molecule	test system	composite z-score
C[C@]1(C(=O)NCC(F)(F)F)c2ccccc2C(=O)N(Cc2cc(F)cc(C(F)(F)F)c2)[C@H]1c1ccc(CO)cc1	Calmodulin-1 (Homo sapiens)	0.302
C=C[C@H](C)[C@H](OC(=O)Nc1ccc(OC)cc1)c1ccc(O)c2ccccc12	Calmodulin-1 (Homo sapiens)	-0.881
C=C(/C(=C/C[C@@H](OC(=O)c1ccncc1)c1ccc(CO)o1)c1cc(C(=O)OC)ccc1OC)C(C)C	Calmodulin-1 (Homo sapiens)	-0.0294
NC(=O)[C@@]1(CCS(=O)(=O)c2ccccc2)N=C(c2ccc(OCCCO)cc2)O[C@H]1c1ccccc1	Calmodulin-1 (Homo sapiens)	0.699

Please turn your attention to the following entry.
Form field: composite z-score recorded for "CC(C)NC(=O)[C@@]1(c2ccc([N+](=O)[O-])cc2)CC(=O)N(C(C)C)[C@@H]1c1ccc(CO)cc1" with Calmodulin-1 (Homo sapiens) (enter value)
-0.56

====

Assay: growth of efflux-deficient E. coli DRC39 – strain DRC39, OD650, 24 h, E. coli filamentation inducers, primary screen (AID 1178);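 also: growth measured as culture turbidity by optical density at 650 nm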
Conditions: E. coli DRC39 acrAB, higher = more signal, called active from +8 up or from −8 down
value type: z-score
A bare number is all that is needed in reply.

Examples from the recorded data:
compound	z-score
O=C1C2C=CC(C(O)CCc3ccccc3)N(Nc3ccccc3)C2C(=O)N1c1ccccc1 (stereo not drawn)	-0.97
COc1ccc(C#Cc2ccc3c(c2)[C@]2(C(=O)N3)[C@H](C(=O)N3CCc4cc(OC)c(OC)cc4C3)[C@H]3C(=O)O[C@H](c4ccccc4)[C@H](c4ccccc4)N3[C@@H]2c2ccc(OCCO)cc2)cc1	0.452

Need z-score, item "CCCNC(=O)[C@@]1(C)c2ccccc2C(=O)N(Cc2cc(C(F)(F)F)cc(C(F)(F)F)c2)[C@H]1c1ccc(CO)cc1"
0.0099

Need z-score, item "C=C(/C(=C/C[C@@H](OC(C)=O)c1ccc(CO)o1)c1cnc2ccccc2c1)C(C)C"
0.99

Need z-score, item CC(C)OC(=O)C1=CCC(c2cccc(Cl)c2)O1 (stereo not drawn)
-0.138

Need z-score, item "Cc1cccc(/C=C/C=O)c1"
0.578

Need z-score, item "COC(=O)[C@@]1(Cc2ccc(OC)cc2)[C@H]2c3cc(C(=O)N4CCCC4)n(CCc4ccccn4)c3C[C@H]2CN1C(=O)c1ccccc1"
-0.784

Need z-score, item "[N-]=[N+]=NCc1ccccc1[C@@H]1OC(c2ccc(OCCCO)cc2)=N[C@]1(Cc1ccccc1)C(=O)O"
0.305

====

System: Lefty1
Experiment: Lefty1 protein binding to printed compounds – biochemical, small-molecule microarray, 635/667 nm fluorescence, primary screen (AID 1139)
Details: fluorescence 635/667, higher = more signal
# composite z-score >= -0.05 gives true, anything below gives false

compound	label
C=CC[C@@]1(C(=O)NCc2ccccc2)N=C(c2ccc(OCCCO)cc2)O[C@@H]1c1ccccc1CN=[N+]=[N-]	false

Is the recorded value of composite z-score equal to or greater than -0.05 for this compound? O=C1OCC=C[C@H]2OC34C=CCN(Cc5ccccc5)C(=O)[C@H]3N(CCCO)C(=O)[C@@H]4[C@@H]12 (some centres undefined)
true

Is the recorded value of composite z-score equal to or greater than -0.05 for this compound? "C=C[C@@H](C)[C@@H](OC(=O)Nc1ccc(OC)cc1)c1ccc(O)c2ccccc12"
true

Is the recorded value of composite z-score equal to or greater than -0.05 for this compound? "CC[C@@H]1C=C(C(=O)O)[C@H](c2ccc(C(C)C)cc2)N1S(=O)(=O)c1ccc(C)cc1"
true

Is the recorded value of composite z-score equal to or greater than -0.05 for this compound? "C=C(CCCC)C(=O)CC[C@H](OC(C)=O)c1ccc(CO)o1"
true

Is the recorded value of composite z-score equal to or greater than -0.05 for this compound? "CC(C)CNC(=O)[C@@]1(C)c2ccccc2C(=O)N(C(C)C)[C@H]1c1ccc(CO)cc1"
false

====

Tested on: XIP peptide (Xip251-270)
Assay: compounds binding XIP fragment 251-270 – biochemical, small-molecule microarray, fluorescence 635/667 nm, 0.5 µg/mL protein, primary screen (AID 1183)
Settings: fluorescence 635 nm, higher = more signal
value type: composite z-score
A bare number is all that is needed in reply.

Examples from the recorded data:
smiles data	test system	composite z-score
COCCOC(=O)N1C(=O)[C@@]2(c3cc(C#CCC(C(=O)OC)C(=O)OC)ccc31)[C@H](c1ccccc1OCCO)N1[C@H](c3ccccc3)[C@H](c3ccccc3)OC(=O)[C@H]1[C@@H]2C(=O)Nc1nc2ccccc2s1	XIP peptide (Xip251-270)	0.862
O=c1cccc(-c2cccc3ccccc23)o1	XIP peptide (Xip251-270)	0.454
O=C1[C@H]2C=C(Br)[C@H](C[C@@H]2OCCOCCO)[C@@]12CO2	XIP peptide (Xip251-270)	0.798
O=C(CS)NCCCCCCNC(=O)[C@H]1C[C@H]2C(=O)N3CCC[C@H]3C(=O)N2[C@H]1c1ccc(O)cc1	XIP peptide (Xip251-270)	0.646
C=CC[C@@]1(C(=O)NCc2ccccc2)N=C(c2ccc(OCCCO)cc2)O[C@@H]1c1ccccc1CN=[N+]=[N-]	XIP peptide (Xip251-270)	0.496
C=CCN1C(=O)[C@]2(COC(c3ccc(OCCCO)cc3)=N2)Cc2ccccc21	XIP peptide (Xip251-270)	0.797
COC(=O)c1c2oc(c1C(=O)OC)C(=O)N[C@H](Cc1ccccc1)Cn1nncc1C1(CCCCC1)NC(=O)N[C@H](CO)CC2	XIP peptide (Xip251-270)	-0.0356
COC(=O)[C@@]1(Cc2ccc(OC)cc2)[C@H]2c3cc(C(=O)N4CCCC4)n(CCN4CCOCC4)c3C[C@H]2CN1C(=O)c1ccccc1	XIP peptide (Xip251-270)	0.0956
COCCOC(=O)N1C(=O)[C@@]2(c3cc(C#CC4=CCCCC4)ccc31)[C@H](c1ccc(OCCO)cc1)N1[C@H](c3ccccc3)[C@H](c3ccccc3)OC(=O)[C@H]1[C@@H]2C(=O)Nc1nc2ccccc2s1	XIP peptide (Xip251-270)	0.622
CCOC(=O)C=Cc1cccc(OC)c1O	XIP peptide (Xip251-270)	0.36

Form field: composite z-score recorded for "O=C(NCCN1CCOCC1)[C@@H]1c2ccccc2C(=O)N(Cc2cc(F)cc(C(F)(F)F)c2)[C@H]1c1ccc(CO)cc1" with XIP peptide (Xip251-270) (enter value)
0.372

Form field: composite z-score recorded for "Cc1c(NC(=O)/C(C#N)=C/C=C/c2ccccc2)c(=O)n(-c2ccccc2)n1C" with XIP peptide (Xip251-270) (enter value)
0.559

Form field: composite z-score recorded for "CC(C)C(=C=CC[C@H](O)c1ccccc1OCCO)CCO" with XIP peptide (Xip251-270) (enter value)
0.81

Form field: composite z-score recorded for "COCC1=C([C@H](O)CCc2ccccc2)[C@H](CO)[C@@H]2C(=O)N(Cc3ccccc3)C(=O)[C@@H]2C1" with XIP peptide (Xip251-270) (enter value)
0.155

Form field: composite z-score recorded for "O=C1c2ccccc2[C@](Cc2ccccc2I)(C(=O)O)[C@H](c2ccc(CO)cc2)N1Cc1ccccc1C(F)(F)F" with XIP peptide (Xip251-270) (enter value)
0.506

Form field: composite z-score recorded for "COCCCNC(=O)[C@@]1(Cc2ccccc2I)c2ccccc2C(=O)N(Cc2ccccc2)[C@H]1c1ccc(CO)cc1" with XIP peptide (Xip251-270) (enter value)
0.736

====

Test: COS7 lysate on small-molecule microarray, probe aHis, 635 nm (AID 1123);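 also: z-score combines 667nm fluorescence intensity with signal-to-noise per printed compound spot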
Conditions: COS7 cell lysate, fluorescence, higher = more signal
The reader will find reported composite z-score values listed item by item below.
A bare number is all that is needed in reply.

Need composite z-score, item "COc1ccc([Si](C)(C)[C@@H]2[C@@H](CCO)O[C@]3(C(=O)N(Cc4ccccc4)c4ccc(N(C=O)c5ccccc5)cc43)[C@H]2C)cc1"
0.937

Need composite z-score, item "NC(=O)NCC#Cc1ccc2c(c1)[C@]1(C(=O)N2)[C@H](c2ccc(O)cc2)N2[C@H](c3ccccc3)[C@H](c3ccccc3)OC(=O)[C@H]2[C@@H]1C(=O)N1CCN(c2ncccn2)CC1"
1.64

Need composite z-score, item "CCCC[C@@H]1C[C@H]1[C@@H](NC(=O)c1ccccc1)c1ccc(-c2ccccc2)cc1"
1.17
